target: ZIKV envelope domain III ([..]), polyhistidine-AviTag, made in HEK-293-6E cells (Zika virus (KJ776791)); experiment: ELISA on ZIKV EDIII (Table A); settings: remark: other sources report otherwise
Parameter: EC50. Scope: all listed entries.
Numbers only here, please. The scale is µg/mL.

Please review the following examples before continuing.
>>> measured_value("Z053 (BRA138_65) (antibody, V domains shown) VH: QLQLQESGPGLVKPSETLSLTCTVSGGSISSYNYYWGWIRQPPGKGLEFIGSIYYTGSTYYNPSLRSRVTISVDTSKNQFSLKLTSVTAADTAVYYCARHGPGMGHNWYFDLWGRGTLVTVSS VL: EIVLTQSPATLSLSPGERATLSCRASQSISSYLAWYQQKPGQAPRLLIYDASNRAPGIPARFSGSGSGTDFTLTISSLEPEDFAVYYCQQRSTWLTFGGGTKVEIK")
1.68
>>> measured_value("Z057 (MEX84_p4-54) (antibody, V domains shown) VH: EVQLVQSGAEVKRPGASVKVSCKASGYTFADYYIHWVRQAPGLGLEWMGWINPKTGFSHYEQTFQGRVTMARDTSIPAAYMELSSLKSDDTAIYYCARGGRINVAEALRYWGQGSLVTVSS VL: DIQMTQSPSTLSTFVGDRVTITCRASQTIGDWLAWYQQKPGKAPKLLISKATRLESGVPSRFSGSGSETEFSLTINSLQPDDVAAYYCQQYMSYPWTFGQGTKLEIK")
0.0828
>>> measured_value("Z005 (MEX18_13) (antibody, V domains shown) VH: EVQLLESGGGLVQPGGSLRLSCAASGFTFSSYAMSWVRQAPGKGLEWVSSFSGIDDSTWYADSVKGRFTISRDNSKSTLYLQMNSLRAEDTAVYYCAKDRLVRGFAEVLDYWGRGTLVTVSS VL: DIQMTQSPSSLSASVGDRVTITCRASQDISKYLAWYQQRPGKVPNLLIYTASTLQSGVPSRFSGSGSGTHFTLTISSLQPEDVATYYCQKYNSVPWTFGQGTKVEIK")
0.216

Which EC50 is listed for Z052 (BRA138_62) (antibody, V domains shown) VH: QVQLQESGPGLVKPSQTLSLTCTVSGGSITGGVYYWNWIRHHPGKGLEWIGYMFYSGDTDYNPSLRSRVTISGDTSKNKFSLNLNSVTAADTAVYYCARAGFDYGSPVSAFDIWGQGTLVTVSS VL: EIVLTQSPATLSLSPGERATLSCRASQSVSSTYLVWYQQKPGQAPRLLIYGASSRATGIPDRFSGSGSGTDFTLTISRLEPEDFAVYFCQQYAHSPRGYTFGQGTKLEIK ?
0.0131
